Reported Fbg values follow for various compounds
- Species: Rattus norvegicus
- Assay Remarks: Open TG-GATES - Regimen: Single
- Assay type: toxicity, organism-based, Sprague-Dawley
- Set-up: regimen Single, gender Male, age 6 weeks
- Run Parameters: in vivo, po, 100 mg/kg, 6 h, tissue Blood, route gavage, dose level Low
# value in mg/dL; strip the unit string

Examples with answers:
COC1=CC(=O)C[C@@H](C)[C@]12Oc1c(Cl)c(OC)cc(OC)c1C2=O; 218
NC(N)=Nc1nc(CSCCC(N)=NS(N)(=O)=O)cs1; 222.2
CCOC(=O)CCC(=O)O[C@H]1[C@H](O[C@@H]2[C@@H](C)[C@H](O[C@H]3C[C@@](C)(OC)[C@@H](O)[C@H](C)O3)[C@@H](C)C(=O)O[C@H](CC)[C@@](C)(O)[C@H](O)[C@@H](C)C(=O)[C@H](C)C[C@@]2(C)O)O[C@H](C)C[C@@H]1N(C)C [ERYTHROMYCIN ETHYLSUCCINATE]; 308

In the following, a different compound is considered.
// Fbg value for COc1ccc2[nH]c([S+]([O-])Cc3ncc(C)c(OC)c3C)nc2c1 (centres undefined) : 217
